- System: K-562 leukemia
- experiment description: NCI tumour cell line growth inhibition, 48 h
Overview of recorded TGI for various compounds
recorded endpoint: TGI

compound="O=C(CCc1ccccc1)CC1OC(=O)C(Cl)=C1Cl (stereo not given)" assay_result="88 µM"
compound=O=C1/C(=C/c2ccc(C(F)(F)F)cc2)COc2ccc(O)c(O)c21 assay_result="> 100 µM"
compound=Cc1cc(N(CCNc2ccnc3cc(Cl)ccc23)Cc2ccc3c(c2)OCO3)nc(N2CCCC2)n1 assay_result="3.2 µM"
compound=O=C1CN(c2cccc(C(F)(F)F)c2)C(=O)CN1CCN1CC(=O)N(c2cccc(C(F)(F)F)c2)CC1=O assay_result="> 100 µM"
compound=CC(=O)CC(=O)Nc1ccccc1C(F)(F)F assay_result="> 100 µM"
compound=COC(=O)c1cc2cc(/C=C3/SC(=S)N(N(C(C)=O)C(C)=O)C3=O)oc2n1Cc1ccccc1 assay_result="53.7 µM"
compound="COC(=O)[C@@]12C3=NO[C@]1(C(=O)OC)C(O[Si](C)(C)C(C)(C)C)[C@@H](OC(C)=O)[C@@H](OC(C)=O)[C@@H]2[C@@H](OCc1ccccc1)CC3 (stereo not given in full)" assay_result="> 100 µM"
compound=Brc1ccc(-c2cc3c(cc2C2SCCS2)OCO3)cc1 assay_result="> 100 µM"
compound=Cc1ccc(S(=O)(=O)NNS(C)(=O)=O)cc1 assay_result="> 100 µM"
compound="CCC(c1ccccc1)c1cc(C(C)(C)C)cc(C(C)(C)C)c1O (stereo not given)" assay_result="34 µM"
compound=COC(=O)c1c2c(cc3c1CC1(Cc4ccccc4C1)C3)CCC2 assay_result="24.3 µM"
compound=COc1ccc2c(c1)/c(=C/C#N)c1c3ccccc3[n+](C)n21 assay_result="> 69.8 µM"
compound="O=C(CC(C(=O)c1cccs1)c1ccsc1)c1ccc(Cl)s1 (stereo not given)" assay_result="> 100 µM"
compound=S=C(SSC(=S)N1CCCCC1)N1CCCCC1 assay_result="> 100 µM"
compound=O=c1[nH]cnc2c1cnn2Cc1cnnn1COCCO assay_result="> 100 µM"

This collection of values is drawn from PubChem BioAssay (NCI).
